Here the recorded pIC50 is given for each entry.
MEASURED TARGET: human PRMT8 (Homo sapiens)
Sequence (Q9NR22 whole entry): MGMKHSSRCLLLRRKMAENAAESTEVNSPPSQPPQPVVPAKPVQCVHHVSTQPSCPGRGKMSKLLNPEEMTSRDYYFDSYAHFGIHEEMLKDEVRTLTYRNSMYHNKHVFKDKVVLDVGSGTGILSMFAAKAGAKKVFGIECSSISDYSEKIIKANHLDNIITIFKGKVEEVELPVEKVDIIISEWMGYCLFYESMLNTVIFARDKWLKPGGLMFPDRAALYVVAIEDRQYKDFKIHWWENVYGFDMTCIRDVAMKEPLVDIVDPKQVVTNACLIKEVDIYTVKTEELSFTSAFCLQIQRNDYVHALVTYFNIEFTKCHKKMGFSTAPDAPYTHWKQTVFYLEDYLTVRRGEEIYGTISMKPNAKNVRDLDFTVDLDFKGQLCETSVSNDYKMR
EXPERIMENT DESCRIPTION: biochemical
CONDITION NOTES: single experiment or average of multiple experiments; read-out: PRMT8 biochemical evaluation (numerical)
Quick note: pIC50 values are minus log10 of concentrations in mol/L.

Solved cases below.
>>> recorded_number("CNCCN(C)Cc1n[nH]c2ccc(OC)cc12")
5.73
>>> recorded_number("CNCCN(C)Cc1n[nH]c2ccc(N3CCCCC3)cc12")
7.01
>>> recorded_number("CNCCN(C)Cc1n[nH]c2ccc(Oc3ccccc3C(F)(F)F)cc12")
7.34
>>> recorded_number("CNCCN(C)Cc1n[nH]c2ccc(Oc3cccc(OC)c3)cc12")
7.10
>>> recorded_number("CC(C)COc1ccc2[nH]nc(CN(C)CCN)c2c1")
6.34

Turning now to a further record.
Give the measured pIC50 of `CNCCN(C)Cc1n[nH]c2ccc(OCC3CCOCC3)cc12` .
7.41

---

MEASURED TARGET: UniProt Q96LA8
EXPERIMENT DESCRIPTION: biochemical
CONDITION NOTES: biochemical evaluation, peptide substrate; read-out: PRMT6 IC50
pIC50: −log10 of the molar value.
ATTRIBUTE MEASURED: pIC50

>>> result("CNCCN(C)Cc1n[nH]c2ccc(OCC(C)c3ccccc3)cc12 (centres unmarked) [Compound 19]")
"> 7.00"

Find the recorded pIC50 belonging to CNCCN(C)Cc1n[nH]c2ccc(OCc3ccc(C(F)(F)F)cc3)cc12 [Compound 68] and report it.
> 7.00

Please report the recorded pIC50 for CNCCN(C)Cc1n[nH]c2ccc(OCc3ccn(C)n3)cc12 [Compound 20] .
> 7.00

Fill in the blank: the reported pIC50 of CNCCN(C)Cc1n[nH]c2ccc(OC3CCOC3)cc12 (centres unmarked) [Compound 25] is ____.
> 7.00

Report pIC50 for CNCCN(C)Cc1n[nH]c2ccc(Oc3cccc(C)c3)cc12 [Compound 26] please.
6.00 to 7.00

---

Reported IC50 by item:
MEASURED TARGET: Human CARM1 (PRMT4) (Homo sapiens)
Construct: Flag-CARM1-His; made in house; host or cells: HEK 293F cells (BacMam baculovirus)
EXPERIMENT DESCRIPTION: CARM1 Biochemical Assay
CONDITION NOTES: PRMT4 IC50, biochemical evaluation, CARM1 (PRMT4), peptide substrate

Take a look at these entries with their results.
>>> result("CNCCN(C)Cc1n[nH]c2ccc(Oc3ccc(C)cc3)cc12 [Compound 55]")
"101 to 1000 nM"
>>> result("CNCCN(C)Cc1n[nH]c2ccc(Oc3cccc(OC)c3)cc12 [Compound 22]")
"101 to 1000 nM"
>>> result("CNCCN(C)Cc1n[nH]c2ccc(OCC3CCOCC3)cc12 [Compound 50]")
"3010 to 10000 nM"
>>> result("CNCCN(C)Cc1n[nH]c2ccc(Oc3ccc(C#N)cc3)cc12 [Compound 37]")
"1010 to 3000 nM"
>>> result("CNCCN(C)Cc1n[nH]c2ccc(OC3CCCCC3)cc12 [Compound 18]")
"101 to 1000 nM"

Give its IC50 value. Item: CNCCN(C)Cc1n[nH]c2ccc(OCc3ccc(C(N)=O)cc3)cc12 [Compound 69]
3010 to 10000 nM

Endpoint output: IC50 of CNCCN(C)Cc1n[nH]c2ccc(OCC3CCCC3)cc12 [Compound 52] . Value?
3010 to 10000 nM

State the recorded IC50 for this entry: CNCCN(C)Cc1n[nH]c2ccc(OCc3cccc(NC(C)=O)c3)cc12 [Compound 70]
101 to 1000 nM

Quick one: IC50 for CNCCN(C)Cc1n[nH]c2ccc(OCC3CCN(C(C)=O)CC3)cc12 [Compound 51] ?
3010 to 10000 nM

// lookup IC50 for CNCCN(C)Cc1n[nH]c2cccc(OCCC(O)CO)c12 (centres unmarked) [Compound 40]
3010 to 10000 nM

---

Each item that follows carries a reported log10 of IC50.
MEASURED TARGET: human PRMT6 (Homo sapiens, UniProt Q96LA8)
Sequence (Q96LA8 with tags, fused parts or gaps): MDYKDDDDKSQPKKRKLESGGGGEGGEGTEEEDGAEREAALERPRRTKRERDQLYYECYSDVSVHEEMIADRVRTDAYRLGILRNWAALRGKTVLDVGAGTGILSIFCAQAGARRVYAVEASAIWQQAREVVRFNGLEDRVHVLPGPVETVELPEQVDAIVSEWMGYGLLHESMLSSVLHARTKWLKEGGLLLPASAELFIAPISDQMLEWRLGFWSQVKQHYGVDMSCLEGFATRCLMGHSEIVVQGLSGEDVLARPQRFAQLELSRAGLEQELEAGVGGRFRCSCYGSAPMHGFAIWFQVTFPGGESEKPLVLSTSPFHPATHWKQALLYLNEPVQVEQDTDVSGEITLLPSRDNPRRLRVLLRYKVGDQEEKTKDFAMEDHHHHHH
EXPERIMENT DESCRIPTION: biochemical
CONDITION NOTES: single experiment or average of multiple experiments; read-out: PRMT6 biochemical evaluation (numerical)
Plainly stated, the numbers are log10 of IC50 given in nM.

Below, each entry is followed by its recorded log10 of IC50 result.
>>> recorded_number("CNCCN(C)Cc1nn(C)c2ccc(OCc3ccc(C#N)cc3)cc12 [Compound 32]")
2.19
>>> recorded_number("CNCCN(C)Cc1n[nH]c2ccc(OCc3cccc(C(N)=O)c3)cc12 [Compound 66]")
1.75
>>> recorded_number("CNCCN(C)Cc1c2cc(OCc3ccc(C#N)cc3)ccc2nn1C(C)C [Compound 34]")
1.17
>>> recorded_number("CNCCN(C)Cc1n[nH]c2ccc(OC3CCCCC3)cc12 [Compound 18]")
1.01

Provide the documented log10 of IC50 with human PRMT6 (Homo sapiens, UniProt Q96LA8) as the system for CNCCN(C)Cc1n[nH]c2ccc(OC(C)Cc3ccccc3)cc12 (centres unmarked) [Compound 9]
1.14

---

Catalogue of pIC50 values
MEASURED TARGET: UniProt Q9NR22
EXPERIMENT DESCRIPTION: biochemical
CONDITION NOTES: biochemical evaluation, peptide substrate; read-out: PRMT8 IC50
pIC50: −log10 of the molar value.

# annotated cases, reported pIC50 shown
>>> result("CNCCN(C)Cc1n[nH]c2cccc(OCCC(O)CO)c12 (stereo not shown)")
"5.52 to 6.00"
>>> result("CNCCN(C)Cc1n[nH]c2ccc(OCC(C)c3ccccc3)cc12 (stereo not shown)")
"> 7.00"
>>> result("CNCCN(C)Cc1n[nH]c2ccc(N3CCC4(CCCCC4)CC3)cc12")
"6.00 to 7.00"

Then this molecule:
Recorded pIC50 of `CNCCN(C)Cc1n[nH]c2ccc(C3CCOCC3)cc12` , please.
> 7.00

---

MEASURED TARGET: human PRMT1 (Homo sapiens, UniProt Q99873)
Construct: GST-tagged PRMT1; made in house; host or cells: High Five insect cells (baculovirus)
Sequence (Q99873 other isoform, or with tags, fused parts or gaps): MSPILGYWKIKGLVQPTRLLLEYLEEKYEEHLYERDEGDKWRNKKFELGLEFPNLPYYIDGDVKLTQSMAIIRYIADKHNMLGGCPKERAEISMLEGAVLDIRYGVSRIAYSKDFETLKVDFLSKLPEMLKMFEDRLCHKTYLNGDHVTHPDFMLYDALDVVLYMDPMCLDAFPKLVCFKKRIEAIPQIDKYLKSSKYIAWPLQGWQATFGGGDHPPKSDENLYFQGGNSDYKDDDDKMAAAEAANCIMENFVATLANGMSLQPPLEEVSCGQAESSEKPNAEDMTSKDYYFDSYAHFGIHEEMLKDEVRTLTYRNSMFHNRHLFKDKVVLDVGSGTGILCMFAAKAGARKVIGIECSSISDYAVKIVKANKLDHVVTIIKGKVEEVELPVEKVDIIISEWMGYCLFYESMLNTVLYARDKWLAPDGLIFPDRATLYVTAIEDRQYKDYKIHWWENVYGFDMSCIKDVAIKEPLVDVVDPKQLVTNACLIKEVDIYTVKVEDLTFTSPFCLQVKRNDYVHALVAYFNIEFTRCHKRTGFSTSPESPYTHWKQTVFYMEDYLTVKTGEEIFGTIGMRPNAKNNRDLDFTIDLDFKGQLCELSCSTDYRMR
EXPERIMENT DESCRIPTION: biochemical
CONDITION NOTES: single experiment or average of multiple experiments; read-out: PRMT1 biochemical evaluation (numerical)
Entries and their IC50
The reply should be a number in nM, with the unit left off.

>>> recorded_number("CNCCN(C)Cc1n[nH]c2ccc(Oc3ccc(OC)cc3)cc12")
101
>>> recorded_number("CNCCN(C)Cc1n[nH]c2ccc(O)cc12")
6760
>>> recorded_number("CNCCN(C)Cc1n[nH]c2ccc(OCCc3ccccc3)cc12")
6.6

Name the reported IC50 value associated with the molecule `CNCCN(C)Cc1n[nH]c2ccc(Oc3ccc(C(F)(F)F)cc3)cc12`
2270

Param item = `CNCCN(C)Cc1n[nH]c2ccc(OC3CCCCC3)cc12` ; retrieve measured IC50.
40.2

---

MEASURED TARGET: UniProt:Q96LA8
EXPERIMENT DESCRIPTION: biochemical
CONDITION NOTES: single experiment or average of multiple experiments; read-out: PRMT6 biochemical evaluation (numerical)
Consider the following compounds and their measured pIC50 readings.
Just the number, please; pIC50 means minus log10 of the concentration in mol/L.

>>> recorded_number("CNCCN(C)Cc1n[nH]c2ccc(OCc3ccccn3)cc12 [Compound 12]")
7.36
>>> recorded_number("CNCCN(C)Cc1n[nH]c2ccc(Oc3cccc(C#N)c3)cc12 [Compound 28]")
6.82
>>> recorded_number("CNCCN(C)Cc1n[nH]c2ccc(Oc3ccccc3OC(C)C)cc12 [Compound 56]")
6.11
>>> recorded_number("CNCCN(C)Cc1n[nH]c2ccc(OCc3ccc(C(N)=O)cc3)cc12 [Compound 69]")
7.47

# ---- query compound ----
pIC50 for CNCCN(C)Cc1n[nH]c2ccc(Oc3cccc(Cl)c3)cc12 [Compound 27] ?
7.27

---

MEASURED TARGET: Human CARM1 (PRMT4) (Homo sapiens)
Construct: Flag-CARM1-His; made in house; host or cells: HEK 293F cells (BacMam baculovirus)
Sequence (Q86X55 1-585 isoform Q86X55-1): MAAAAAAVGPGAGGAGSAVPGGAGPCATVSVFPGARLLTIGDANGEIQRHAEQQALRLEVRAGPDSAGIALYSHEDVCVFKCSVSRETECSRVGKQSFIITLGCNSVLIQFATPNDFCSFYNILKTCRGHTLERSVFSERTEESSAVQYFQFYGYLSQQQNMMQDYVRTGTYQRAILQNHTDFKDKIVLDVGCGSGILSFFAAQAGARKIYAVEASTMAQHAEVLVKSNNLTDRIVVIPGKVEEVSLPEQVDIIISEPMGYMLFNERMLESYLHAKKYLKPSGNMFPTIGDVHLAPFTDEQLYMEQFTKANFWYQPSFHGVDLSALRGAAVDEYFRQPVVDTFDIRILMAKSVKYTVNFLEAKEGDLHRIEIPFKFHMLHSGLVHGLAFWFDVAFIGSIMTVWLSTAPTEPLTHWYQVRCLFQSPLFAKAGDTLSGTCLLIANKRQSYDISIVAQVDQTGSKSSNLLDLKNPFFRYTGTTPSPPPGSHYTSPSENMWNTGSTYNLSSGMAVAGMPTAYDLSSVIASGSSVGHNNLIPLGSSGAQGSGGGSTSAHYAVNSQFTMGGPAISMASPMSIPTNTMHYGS
EXPERIMENT DESCRIPTION: CARM1 Biochemical Assay
CONDITION NOTES: PRMT4 IC50, biochemical evaluation, CARM1 (PRMT4), peptide substrate
Excerpt: General Materials. […] General Procedure for CARM1 Enzyme Assays on Peptide Substrates. […] The plates were then read in a PerkinElmer TopCount plate reader to measure the quantity of ^3H-labeled peptide bound to the Flashplate surface, measured as disintegrations per minute (dpm) or alternatively, referred to as counts per minute (cpm). […]
pIC50: −log10 of the molar value.
ATTRIBUTE MEASURED: pIC50

>>> result("CNCCN(C)Cc1n[nH]c2ccc(OC)cc12")
"5.00 to 5.52"

Given the entry `CNCCN(C)Cc1n[nH]c2ccc(Oc3cccc(C)c3)cc12` , report its measured pIC50.
6.00 to 7.00

// pIC50 lookup, key: `CNCCN(C)Cc1n[nH]c2ccc(OCc3ccc(C(C)=O)cc3)cc12`
6.00 to 7.00

Could you tell me which pIC50 is on file for `CNCCN(C)Cc1n[nH]c2ccc(N3CCCCC3)cc12` ?
6.00 to 7.00

What value of pIC50 has been reported for the following compound? `CCOc1ccc2[nH]nc(CN(C)CCNC)c2c1`
5.00 to 5.52

So what's the measured pIC50 for this one? CNCCN(C)Cc1n[nH]c2cccc(OCCCC(O)CO)c12 (stereo not shown)
5.52 to 6.00
